Tested on: HL-60(TB) leukemia
PROTOCOL_DESCRIPTION: NCI-60 one-dose screen, 48 h
CONDITIONS_USED: 10 µM unless noted
This is part of a sample that, as a whole, favours compounds with a hit. Of some 83,000 tested, about 20% had one in any assay. Calls of active or inactive are those of the source. The calls were made as follows: active = growth percent below 10; inactive = the rest.
Respond with a class label; see active, inactive

Which outcome was assigned to CC(C)(C)c1ccc(C(=O)Nc2sc3c(c2C#N)CCC(=O)C3)cc1 in this test?
active

So what was the verdict on Cn1ccc2c1CC1CN(Cc3ccco3)C(=O)C1C2C(=O)O (configuration not stated) in this test?
inactive

Hi, do you know how CC1CN(C(C)C)C(=S)N(c2ccccc2)C1=O (configuration not stated) came out in this test?
inactive

Query: recorded result category for c1ccc(Oc2c3ccccc3nc3ccccc23)cc1 in this test
active

Assay result, entry CC(C)(c1ccccc1)c1cc(O)c(C(C)(C)c2ccccc2)cc1O — outcome?
active

// return assay outcome for CCNc1nc(-c2ccc(F)cc2)c(C#N)c(=O)n1C
inactive

Please state the recorded outcome for this molecule: O=C(/C(=N/O)S(=O)(=O)c1ccccc1)c1cccs1
inactive

Which result was noted for this molecule in the test: C#CC[C@@H]1C[C@]2(C)[C@H]3CC[C@@H]4[C@H]5C(C(=C)C)CC[C@]5(C(=O)NCCN(CCN)CCN)CC[C@@]4(C)[C@]3(C)CC[C@H]2C(C)(C)[C@H]1OC(C)=O (some centres not stated)
inactive

I would be grateful if you could indicate the recorded call for O=C(c1ccccc1)N(CCCCl)C(=O)N(CCCCl)C(=O)c1ccccc1 .
inactive

Called result for COc1cc(/C=C/C(=O)c2ccccc2O)ccc1OCCCOc1cc2c(cc1OC)C(=O)N1CCC[C@H]1C=N2
active

Assay result, entry COc1cc(NC(=O)c2cc(OC)c3ccn(C)c3c2)cc2c1C[C@]1(C)CC[C@@H](O)C(C)(C)[C@H]1O2 — outcome?
inactive

Just curious, what result did CN1CCN(c2nc3scc(-c4ccccc4)c3c(=O)[nH]2)CC1 get here?
inactive

Fill in: this test's call for N#Cc1cc(-c2ccnc(Nc3ccc(NC(=O)CCl)cc3)n2)ccc1N1CCCC1 is ___
active

For COc1cc(-c2nc3ccccc3o2)cc(CN2CCCCC2)c1O , what call appears in the results of this test?
inactive

Assay outcome for Nc1ncnc(Nc2ccc(C(F)(F)F)cc2)n1 : what was it?
inactive

Any idea what this test logged for COc1ccc(/C=C/C(=O)c2ccc(NC(=O)CSc3nnc(-c4ccc(OC)c(OC)c4)n3-c3ccccc3)cc2)cc1 ?
inactive

Could you check what this test reported for O=C1NCN(CCO)CN1 ?
inactive

What was the test verdict on O=S(=O)(Cc1ccccc1)c1nc2ccccc2s1 ?
inactive

Give the logged outcome of this assay for the following molecule: N#C/C(=C\c1ccc(Br)cc1)n1nnc2cc(F)c(F)cc21
active

Recorded test call requested for O=C1C(=O)c2ccc(Br)cc2-c2cc(Br)ccc21
active

What did the test return for CC(=O)O[C@]1(C)CC[C@H]2[C@H](CNCCc3ccc(Cl)cc3)C(=O)O[C@@H]2C2=C(C)C(=O)C[C@H]21 ?
inactive

How did this test come out for CCOC(=O)/C=C1\SC(=Nc2ccc(C#N)cc2)N(CCN2C(=O)/C(=C/C(=O)OCC)SC2=Nc2ccc(C#N)cc2)C1=O ?
inactive
